- test-details: chemical genetic growth profiling, strain panel (AID 1159580);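 also: tested at 20 µM; growth read once vehicle control cultures reached saturation at 30 °C; 1 = growth at the plate median or of vehicle wells; lower values mean less growth of the strain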
- measurement-conditions: S. cerevisiae deletion strains, growth OD, locus YHR200W, strain rpn10, hits give low values
The whole screen tested about 5,500 compounds, of which about 2,000 (36%) were called active. Inconclusive results (about 18%) are left out. Some of the results follow. Where a SMILES comes first, the peptide text is derived from it.
Give measured normalized growth for each item. Keep answers brief.
Respond numerically, and do not add a unit to the figure.

Ask: // query normalized growth value for entry `Oc1c(Cl)cc(Cl)c(Cl)c1Cc1c(O)c(Cl)cc(Cl)c1Cl`
Result: 0.0603

Ask: // query normalized growth value for entry Clc1ccc(COC(Cn2ccnc2)c2ccc(Cl)cc2Cl)c(Cl)c1 (centres undefined)
Result: 0.0606

Ask: // query normalized growth value for entry `FC(F)(F)c1cccc(N2CCNCC2)c1`
Result: 0.987

Ask: // query normalized growth value for entry CCCCCCCCCCCCCC(=O)OC1C(C)C2(O)C(C=C(CO)CC3(O)C(=O)C(C)=CC32)C2C(C)(C)C12OC(C)=O (centres undefined)
Result: 0.989

Ask: // query normalized growth value for entry Clc1ccc(COC(Cn2ccnc2)c2ccc(Cl)cc2Cl)cc1 (centres undefined)
Result: 0.0591

Ask: // query normalized growth value for entry COC1C=CC23c4cc5c(cc4CN(CC2O)[C@@H]3C1)OCO5 (some centres undefined)
Result: 1.01

Ask: // query normalized growth value for entry COc1cc2c(cc1OC)C1(O)C(=O)c3ccc(O)c(C(=O)O)c3OC1CO2 (centres undefined)
Result: 0.995

Ask: // query normalized growth value for entry `NCCCCC(=O)O`
Result: 1.01

Ask: // query normalized growth value for entry `CC(=O)NCCc1c[nH]c2ccc(O)cc12`
Result: 0.989

Ask: // query normalized growth value for entry `CC(=O)N[C@@H](CCC(=O)O)C(=O)O`
Result: 1

Ask: // query normalized growth value for entry CC(=O)OC1CC(O)C(C)(C)C2CC(=O)C3(C)C(CCC4(C)C(c5ccoc5)OC(=O)C5OC543)C12C (centres undefined)
Result: 1.01

Ask: // query normalized growth value for entry `NCCCC(=O)O`
Result: 1.02

Ask: // query normalized growth value for entry `O=c1oc2ccccc2cc1O`
Result: 0.983

Ask: // query normalized growth value for entry `COc1c(C)c2c(c(O)c1C/C=C(\C)CCC(=O)O)C(=O)OC2`
Result: 0.889

Ask: // query normalized growth value for entry `NC1(C(=O)O)CC1`
Result: 1.03

Ask: // query normalized growth value for entry CC(=O)N[C@@H](CC(=O)O)C(=O)N[C@@H](CCC(=O)O)C(=O)O (Ac-Asp-Glu-OH)
Result: 0.998

Ask: // query normalized growth value for entry COc1ccc2c(c1)OCC(Cc1ccc(OC)c(OC(C)=O)c1)C2=O (centres undefined)
Result: 1.01

Ask: // query normalized growth value for entry COC(=O)/C(C)=C\CC12OC(C)(C)C3CC(C=C4C(=O)c5c(OC)c6c(c(CC=C(C)C)c5OC431)OC(C)(CCC=C(C)C)C=C6)C2=O (centres undefined)
Result: 0.991

Ask: // query normalized growth value for entry Clc1ccc(CSC(Cn2ccnc2)c2ccc(Cl)cc2Cl)cc1 (centres undefined)
Result: 0.0594

Ask: // query normalized growth value for entry `COc1ccc2c(=O)c(OC)c(-c3ccccc3)oc2c1`
Result: 0.892

Ask: // query normalized growth value for entry `NC1(C(=O)O)CCC1`
Result: 0.968

Ask: // query normalized growth value for entry `NC1(C(=O)O)CCCC1`
Result: 0.997

Ask: // query normalized growth value for entry `O=C(O)CCCCCCCC(=O)O`
Result: 0.991

Ask: // query normalized growth value for entry `Cc1nnc(NS(=O)(=O)c2ccc(N)cc2)s1`
Result: 1.01

----------
Give measured normalized growth for each item. Keep answers brief.
- test-details: chemical genetic growth profiling, strain panel (AID 1159580);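 also: tested at 20 µM; growth read once vehicle control cultures reached saturation at 30 °C; 1 = growth at the plate median or of vehicle wells; lower values mean less growth of the strain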
- measurement-conditions: S. cerevisiae deletion strains, growth OD, locus YNL298W, strain CLA4, hits give low values
The campaign covered roughly 5,500 compounds. About 2,000 (36%) were called active. Roughly 18% stayed inconclusive and do not appear here. The list shows a part of the results.
Respond numerically, and do not add a unit to the figure.

Ask: // query normalized growth value for entry CNc1ccc(C(=O)CC(O)CCC(C)C2OC(=O)CC(O)CC(=O)CC(O)CC(O)CC(O)CC(O)CC3(O)CC(O)C(C(=O)OC)C(CC(OC4OC(C)C(O)C(N)C4O)/C=C/C=C/C=C/C=C/C=C/C=C/C=C/C2C)O3)cc1 (stereo not given)
Result: 0.0597

Ask: // query normalized growth value for entry O=c1cccc2n1CC1CC2CN2CCCC[C@@H]12 (stereo not given in full)
Result: 0.986

Ask: // query normalized growth value for entry `NC(N)=NCCCCN=C(N)N`
Result: 0.994

Ask: // query normalized growth value for entry C[C@]12CCC3c4ccc(OC(=O)CCC(=O)O)cc4CCC3C1CCC2=O (stereo not given in full)
Result: 0.886

Ask: // query normalized growth value for entry `NCCCNCCSP(=O)(O)O`
Result: 0.988

Ask: // query normalized growth value for entry C=C[C@@]1(C)CC(=O)[C@@]2(O)[C@](C)(O1)[C@@H](OC(C)=O)[C@@H](O)C1C(C)(C)CC[C@H](O)[C@@]12C (stereo not given in full)
Result: 0.959

Ask: // query normalized growth value for entry CC(=O)Oc1ccc2c(c1)CCC1C2CC[C@]2(C)C(=O)CCC12 (stereo not given in full)
Result: 0.962

Ask: // query normalized growth value for entry O=C(O)CCC1NCC2CC1CN1CCCCC21 (stereo not given)
Result: 0.997

Ask: // query normalized growth value for entry COC(=O)[C@@H]1OC(=O)C2OC23[C@@]1(C)CCC1[C@]2(C)C(C[C@@H](O)[C@]13C)C(C)(C)[C@H](OC(C)=O)C[C@@H]2OC(C)=O (stereo not given in full)
Result: 1.01

Ask: // query normalized growth value for entry `NC(N)=NCCN1CCCCCCC1`
Result: 1.03

----------
- test-details: chemical genetic growth profiling, strain panel (AID 1159580);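 also: tested at 20 µM; growth read once vehicle control cultures reached saturation at 30 °C; 1 = growth at the plate median or of vehicle wells; lower values mean less growth of the strain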
- measurement-conditions: S. cerevisiae deletion strains, growth OD, locus YDR392W, strain spt3, hits give low values
About 2,000 (36%) of roughly 5,500 compounds were called active. Not shown: some 18% with an inconclusive outcome. This is one part of the list. Where a SMILES comes first, the peptide text is derived from it.
Give measured normalized growth for each item. Keep answers brief.
Respond numerically, and do not add a unit to the figure.

Ask: // query normalized growth value for entry COc1ccc2c(c1)OCC(Cc1ccc(OC)c(O)c1)C2=O (stereo not drawn)
Result: 0.449

Ask: // query normalized growth value for entry `C1N2CN3CN1CN(C2)C3`
Result: 0.923

Ask: // query normalized growth value for entry CC1[C@H](C)OC(=O)CC(O)CC(O)CC(O)CCC(O)C(O)C[C@]2(O)CC(O)C(C(=O)O)C(CC(OC3O[C@H](C)[C@@H](O)[C@H](N)[C@@H]3O)/C=C/C=C/C=C/C=C/CC/C=C/C=C/[C@H](C)[C@H]1O)O2 (stereo partly drawn)
Result: 1.11

Ask: // query normalized growth value for entry `FC(F)(F)c1cccc(N2CCNCC2)c1`
Result: 0.89

Ask: // query normalized growth value for entry `O=C1CCCN1CC#CCN1CCCC1`
Result: 1.01

Ask: // query normalized growth value for entry COC(=O)[C@@H]1OC(=O)C2OC23[C@@]1(C)CCC1[C@@]2(C)CCC(=O)C(C)(C)C2C[C@@H](OC(C)=O)[C@]13C (stereo partly drawn)
Result: 1.01

Ask: // query normalized growth value for entry `Cc1oncc1C(=O)Nc1ccc(C(F)(F)F)cc1`
Result: 0.761

Ask: // query normalized growth value for entry `C=C1C(=O)[C@]23[C@H](O)[C@H]1CC[C@H]2[C@@]12CO[C@]3(O)[C@H](O)[C@@H]1C(C)(C)CC[C@@H]2O`
Result: 0.883

Ask: // query normalized growth value for entry `NC(N)=NCCCCN=C(N)N`
Result: 0.946

Ask: // query normalized growth value for entry C=CCS(=O)C[C@H](N)C(=O)O (stereo partly drawn)
Result: 0.979

Ask: // query normalized growth value for entry `Clc1ccccc1CN1CCc2sccc2C1`
Result: 0.77

Ask: // query normalized growth value for entry `CC(=O)O[C@]1(C)CC[C@@]23CC1C(C)(C)[C@@H]2CC[C@H]3C`
Result: 0.964

Ask: // query normalized growth value for entry `C[C@H]1C[C@@H](O)[C@]2(O)[C@@]13CC(=O)OC[C@@]2(C)[C@](C)(O)C(=O)C3`
Result: 0.974

Ask: // query normalized growth value for entry `NC1(C(=O)O)CC1`
Result: 1.05

Ask: // query normalized growth value for entry `CC(=O)OC/C=C(\C)CC/C=C(\C)CC/C=C(\C)CC/C=C(\C)CC/C=C(\C)CC/C=C(\C)CC/C=C(\C)CC/C=C(\C)CCC=C(C)C`
Result: 0.976

Ask: // query normalized growth value for entry O=C(O)C1CCCNC1 (stereo not drawn)
Result: 1.03

Ask: // query normalized growth value for entry COc1ccc2nc(S(=O)Cc3ncc(C)c(OC)c3C)[nH]c2c1 (stereo not drawn)
Result: 0.556

Ask: // query normalized growth value for entry CC(=O)N[C@@H](CC(=O)O)C(=O)N[C@@H](CCC(=O)O)C(=O)O (Ac-Asp-Glu-OH)
Result: 0.898

Ask: // query normalized growth value for entry `Cc1onc(-c2ccccc2)c1-c1ccc(S(N)(=O)=O)cc1`
Result: 1.01

Ask: // query normalized growth value for entry `O=c1oc2ccccc2cc1O`
Result: 0.983

Ask: // query normalized growth value for entry CCC(C)C(=O)c1c(O)c(C)c2oc3c(C)c(O)c(C(=O)C(C)CC)c(O)c3c2c1O (stereo not drawn)
Result: 0.921

Ask: // query normalized growth value for entry CC(=O)Oc1c2c(c(CC=C(C)C)c3c1C(=O)C1=C[C@@H]4CC5C(C)(C)OC(C/C=C(\C)C(=O)O)(C4=O)[C@@]15O3)OC(C)(CCC=C(C)C)C=C2 (stereo partly drawn)
Result: 0.695

Ask: // query normalized growth value for entry `NCCCCCC(=O)O`
Result: 0.965

Ask: // query normalized growth value for entry `COc1cc(C)c2c(=O)cc(-c3ccccc3)oc2c1`
Result: 0.47

Ask: // query normalized growth value for entry COC(=O)[C@@H]1OC(=O)C2OC23[C@@]1(C)CCC1[C@]2(C)C(C[C@@H](O)[C@]13C)C(C)(C)[C@H](OC(C)=O)C[C@@H]2OC(C)=O (stereo partly drawn)
Result: 1.01

Ask: // query normalized growth value for entry `COc1cc(NS(C)(=O)=O)ccc1Cc1c2ccccc2nc2ccccc12`
Result: 0.795

Ask: // query normalized growth value for entry `NCCCCC(=O)O`
Result: 1.01

Ask: // query normalized growth value for entry Cc1cccc(C)c1NC(=O)C1CCCCN1C (stereo not drawn)
Result: 0.996

Ask: // query normalized growth value for entry C[C@@H]1CC[C@H]2C(C)(C)C3CC12CC[C@@]3(C)O (stereo partly drawn)
Result: 0.301

Ask: // query normalized growth value for entry `O=C(O)CCCCCCCC(=O)O`
Result: 1.04

Ask: // query normalized growth value for entry `COP(=S)(OC)Oc1ccc(Sc2ccc(OP(=S)(OC)OC)cc2)cc1`
Result: 0.993

Ask: // query normalized growth value for entry `NC(N)=NCCN1CCCCCCC1`
Result: 0.986

Ask: // query normalized growth value for entry `Fc1ccc([C@@H]2CCNC[C@H]2COc2ccc3c(c2)OCO3)cc1`
Result: 1.02

Ask: // query normalized growth value for entry CC1CCC(NC(=O)N(CCCl)N=O)CC1 (stereo not drawn)
Result: 0.126

Ask: // query normalized growth value for entry CC(=O)C1CC[C@H]2C3CC[C@H]4C[C@H](O)CC[C@]4(C)C3CC[C@]12C (stereo partly drawn)
Result: 0.837

Ask: // query normalized growth value for entry `CC(O)(P(=O)(O)O)P(=O)(O)O`
Result: 0.868

Ask: // query normalized growth value for entry COC(=O)/C(C)=C\CC12OC(C)(C)C3CC(C=C4C(=O)c5c(OC)c6c(c(CC=C(C)C)c5OC431)OC(C)(CCC=C(C)C)C=C6)C2=O (stereo not drawn)
Result: 0.966

Ask: // query normalized growth value for entry `CCCNC(=O)NS(=O)(=O)c1ccc(Cl)cc1`
Result: 1

Ask: // query normalized growth value for entry `O=NN(CCCl)C(=O)NCCCl`
Result: 0.562

Ask: // query normalized growth value for entry CCCCC(=O)O[C@]1(C(=O)CO)CCC2C3CCC4=CC(=O)CC[C@]4(C)C3[C@@H](O)C[C@@]21C (stereo partly drawn)
Result: 0.968

Ask: // query normalized growth value for entry COc1ccc2c(c1)OCC(Cc1ccc(OC)c(OC)c1)C2=O (stereo not drawn)
Result: 0.544

Ask: // query normalized growth value for entry `CCCn1c(=O)c2[nH]c(C3CCCC3)nc2n(CCC)c1=O`
Result: 0.839

Ask: // query normalized growth value for entry COc1cc2c(cc1OC)C1(O)C(=O)c3ccc(O)c(C(=O)O)c3OC1CO2 (stereo not drawn)
Result: 0.974
